Test system: Escherichia coli TOP10;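 also: peptides expressed intracellularly from a pBAD plasmid library in pooled LB shake-flask culture, induced with 0.3% L-arabinose, DNA abundance read by NGS, three biological replicates, DESeq2 with apeglm shrinkage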
measurement notes: shrunken log2 fold change of peptide-encoding DNA abundance (4.5 h post-induction vs induction); higher = less antimicrobial activity (less host growth inhibition)
experimental parameters: time post-induction: 4.5 h; library: site-saturation at positions 5, 18, 19, 20
shrunken log2 fold change below -0.02 gives Not met; shrunken log2 fold change at or above it gives Met.

Reference set, count: 5
RRIRCRPPRLPRPRPRPHFIPRP; Not met
RRIRGRPPRLPRPRPRPFCWPRP; Met
RRIRVRPPRLPRPRPRPTRRPRP; Met
RRIRLRPPRLPRPRPRPSCKPRP; Met
RRIRWRPPRLPRPRPRPRENPRP; Met

Does `RRIRSRPPRLPRPRPRPFSYPRP` have a reported shrunken log2 fold change of at least -0.02?
Not met

# bool: shrunken log2 fold change of `RRIRHRPPRLPRPRPRPIEFPRP` >= -0.02
Not met

Can `RRIRLRPPRLPRPRPRPFSQPRP` be said to have shrunken log2 fold change at or above -0.02?
Not met

Hi team, for `RRIRLRPPRLPRPRPRPDERPRP` , is the recorded shrunken log2 fold change at or above -0.02?
Met

In plain terms: is recorded shrunken log2 fold change at least -0.02 for `RRIRPRPPRLPRPRPRPQQMPRP` ?
Met

Exam item: decide whether the reported shrunken log2 fold change for `RRIRIRPPRLPRPRPRPKKRPRP` is at least -0.02.
Not met

Please check the record `RRIRARPPRLPRPRPRPIAAPRP` and state if its shrunken log2 fold change is at or above -0.02.
Met

Is the recorded value of shrunken log2 fold change equal to or greater than -0.02 for this sequence? `RRIRKRPPRLPRPRPRPPRQPRP`
Met

Decide: is the reported value of shrunken log2 fold change for `RRIRLRPPRLPRPRPRPKVFPRP` equal to or greater than -0.02?
Met

Item `RRIRRRPPRLPRPRPRPLPIPRP` with shrunken log2 fold change of -0.02 or above?
Met

Could you verify whether the entry `RRIRCRPPRLPRPRPRPQKVPRP` shows shrunken log2 fold change of no less than -0.02?
Not met

Reported shrunken log2 fold change reaches at least -0.02 for `RRIRQRPPRLPRPRPRPTNIPRP` ?
Not met

Say whether `RRIRDRPPRLPRPRPRPYVDPRP` shows shrunken log2 fold change of -0.02 or more.
Not met

Quick check, shrunken log2 fold change >= -0.02? `RRIRIRPPRLPRPRPRPRWVPRP`
Met

Dear colleague, could you confirm whether `RRIRARPPRLPRPRPRPDHFPRP` has shrunken log2 fold change at or above -0.02?
Not met

Has `RRIRHRPPRLPRPRPRPVNYPRP` a recorded shrunken log2 fold change greater than or equal to -0.02?
Not met

Please tell me: is the sequence `RRIRLRPPRLPRPRPRPVDAPRP` at or over -0.02 in terms of shrunken log2 fold change?
Met

Quick check: does `RRIRLRPPRLPRPRPRPNWTPRP` have shrunken log2 fold change greater than or equal to -0.02?
Not met

Tell me whether shrunken log2 fold change is at least -0.02 here: `RRIRLRPPRLPRPRPRPLKCPRP`
Not met
